# target: CaBbc1
# assay name: SPOT peptide array binding signal intensity (averaged, normalized) (arbitrary units (background-subtracted, floor 0; scale differs between SH3 domains)); higher = stronger binding of the SH3 domain to the peptide
Reported values of SPOT peptide array binding signal intensity for individual entries
endpoint: SPOT peptide array binding signal intensity

>  <binder>
RAPPPVPKKPSSRIA

>  <result>
1870

$$$$
>  <binder>
VPPPMQPPPIESSNL

>  <result>
10.5

$$$$
>  <binder>
KKAPPPVVKPKPRNF

>  <result>
154

$$$$
>  <binder>
QPPLPSSAPPIPTSH

>  <result>
≤ 0

$$$$
